- MEASUREMENT_NOTES: soluble on expression in E. coli; label from the status in PepcDB or PDB records

BIOPOLYMER_SEQUENCE	soluble on expression in E. coli
MGSDKIHHHHHHMEQDTSMITWHHSPAHLFVPNAFYIVTASTLCHQPLFNSPQKLHILQSTLFEIMQAYNWRLQAWAVFSNHYHFIAQSPEDSSSLKPLIQRFHSQTARAINVLDGSKGRKVWFQYWDTCLTYEQSYLARLNYVHNNPVKHGASRECRAVSLLFSYMV	not soluble
MGSDKIHHHHHHMHNEIVTGNVLPFNIFEKADSKLLAWIRDVSVVREITTSCRLIEEGSTPDGLFVVESGAITVCTKQADGGSLSLASLKVGNLVGEMSWLEERPAVASIDAGPGSRLLQIPREALESINQSEAFICHLLYRLIAEKLALQVQGQNIWVHRIAGTDQEPLRKVLVLFAELEEKDVAWIARSGKFKRLVAGDVLLQEGDNVPGLYLLLAGEARISITENGSWQSVGSSRRGELLGELTMLNPQAAGATANVDTVTGLELLVLDKEELSMTLNADPRLAKRFYKGIARMLSQRSRDQLLSRGFAEASRIAEELIDNEQLGLDQLSAISSAGLRFDWLCRQFQDKEG	not soluble
MGSDKIHHHHHHMKKLHGFENEYLFVLPPVILNNFNFSKVIKLLYITDLGFYPKARYHFVHRDRGTEEWILIFCTHGKGVVKSATEEWLIESGSIVLLPPGKEHTYYAFDDDPWDIFWAHFNGDSVNEYIPQEALQGNGFLVINKTSTEDMQMLMSQFWQMIQALSAGFSYQSVFYSSQVLGATLAYVSLQSVLPHDSYTMGNEYITKAVKYIYDHFEEKVSLSTLTEVLDVSKSYLSRIFRQTVGTSVNQFILDIKMKQACYYLKDTNLAVHQIASRLGYDDPYYFSRIFKKVVGSSPRVFRKQEKNRL	not soluble
